organism: Rattus norvegicus; experiment: Inhibition of rat recombinant Rab geranylgeranyltransferase at 100 uM in presence of canine Rab7 and rat REP1 NBD-FPP based continuous fluorimetric assay
Form field: inhibition (one value per entry).
Give just the number in %; leave the unit off.

Below are worked cases with known answers.
compound="O=C(N[C@@H](CO)C(=O)N[C@@H](Cc1ccccc1)C(=O)N[C@@H](CO)C(=O)OCCCl)C(Br)C(Br)c1ccc(F)cc1 (stereo partly drawn)" reported_result=98
compound=CC(C)(C)Oc1ccc(C[C@H](NC(=O)CNC(=O)[C@H](Cc2cn(C(c3ccccc3)(c3ccccc3)c3ccccc3)cn2)NC(=O)c2coc(-c3ccccc3)n2)C(=O)O)cc1 reported_result=80

Please turn your attention to the following entry.
Q: Fill blank: measured inhibition of the compound O=C(CNC(=O)[C@H](Cc1c[nH]cn1)NC(=O)OCc1ccccc1)N[C@@H](Cc1ccc(O)cc1)C(=O)NCC(O)CO (stereo partly drawn) is ____.
A: 74

* * *

species on record: Rattus norvegicus; experiment: Inhibition of rat recombinant Rab geranylgeranyltransferase at 100 uM in presence of canine Rab7 and rat REP1 NBD-FPP based continuous fluorimetric assay
property label: inhibition (%)
The figure you give is taken to be in %; do not add the unit.

compound_structure_string=Cc1ccc(C(=O)OC[C@H](NC(=O)CNC(=O)[C@H](COC(=O)c2ccc(C)nc2)NC(=O)c2coc(-c3ccccc3)n2)C(=O)O)cn1 reported_result=100

Q: Requested read-out: inhibition. Entry: `O=C(CNC(=O)[C@@H]1CCCN1C(=O)c1coc(-c2ccccc2)n1)N[C@@H](Cc1c[nH]cn1)C(=O)Nc1ccc(F)cc1F`
A: 87

Q: Now the compound `CCCCCCCCCCC(=O)N[C@@H](Cc1ccc(O)cc1)C(=O)N[C@@H](Cc1c[nH]cn1)C(=O)N[C@@H](Cc1c[nH]cn1)C(=O)NOC(C)(C)C`
A: 47

* * *

species on record: Rattus norvegicus; assay: Inhibition of rat recombinant Rab geranylgeranyltransferase at 100 uM in presence of canine Rab7 and rat REP1 NBD-FPP based continuous fluorimetric assay
Peptide text beside a SMILES is read from it. * marks the point of attachment. Cbz = O=C(OCc1ccccc1)*
# inhibition values compiled below
Please reply with the bare figure in % and do not write the unit itself.

Check out these entries, answers already filled in.
compound=COc1ccc(C[C@@H](C(=O)N(C)[C@@H](Cc2ccccc2)C(=O)O)N(C)C(=O)[C@@H](Cc2ccc(O)cc2)NC(=O)OCc2ccccc2)cc1 property_label=inhibition reported_result=25
compound=O=C(CCc1ccccc1)N[C@@H](CO)C(=O)N[C@@H](Cc1ccccc1)C(=O)N[C@@H](CO)C(=O)Nc1ccc(N2CCOCC2)cc1 property_label=inhibition reported_result=95
compound=NCCCCNC(=O)[C@H](Cc1ccc(O)cc1)NC(=O)CNC(=O)[C@H](Cc1ccc(O)cc1)NC(=O)c1ccc(F)cc1 property_label=inhibition reported_result=88
compound=O=C(N[C@@H](Cc1ccc(O)cc1)C(=O)N[C@@H](Cc1ccc(O)cc1)C(=O)N[C@@H](Cc1ccc(O)cc1)C(=O)OCCCl)c1ccc(F)cc1F property_label=inhibition reported_result=71
compound=C[C@@H](NC(=O)CCc1ccccc1)C(=O)N[C@@H](Cc1ccccc1)C(=O)N[C@@H](CCC(N)=O)C(=O)NC1CCCCC1 property_label=inhibition reported_result=44

Q: Dear colleague, I am looking for the recorded inhibition of the following compound: O=C(N[C@@H](Cc1ccccc1)C(=O)N[C@@H](Cc1ccccc1)C(=O)N[C@@H](Cc1ccc(O)cc1)C(=O)O)OCc1ccccc1 (Cbz-Phe-Phe-Tyr-OH)
A: 9

Q: How about this compound: `C=CCOC(=O)[C@H](CO)NC(=O)CNC(=O)[C@H](Cc1ccccc1)NC(=O)c1coc(-c2ccccc2)n1`
A: 109

Q: Request: `CC(=O)Nc1cc(C(=O)N2CCC[C@@H]2C(=O)N[C@@H](C(=O)N[C@@H](CCC(N)=O)C(=O)NN)C(C)C)ccc1[N+](=O)[O-]`
A: 77

* * *

species: Rattus norvegicus; experiment: Inhibition of rat recombinant Rab geranylgeranyltransferase at 100 uM in presence of canine Rab7 and rat REP1 NBD-FPP based continuous fluorimetric assay
property label: inhibition (%)
The reply should contain only the number, in %.

Q: Looking for the measured inhibition of `CC(C)C[C@H](NC(=O)[C@@H]1CCCN1C(=O)/C=C/c1ccccc1)C(=O)N[C@@H](Cc1ccccc1)C(=O)NC1CCCCC1` , can you help?
A: 82

Q: Similarly, `O=C(CNC(=O)[C@H](Cc1cn(C(c2ccccc2)(c2ccccc2)c2ccccc2)cn1)NC(=O)c1coc(-c2ccccc2)n1)N[C@@H](Cc1c[nH]c2ccccc12)C(=O)O` ?
A: 74

Q: `O=C(CCc1ccc(F)cc1)N[C@@H](Cc1ccc(O)cc1)C(=O)NCC(=O)N[C@@H](Cc1ccc(O)cc1)C(=O)OCCCl` , same question.
A: 50

Q: Subsequent entry: `CC(C)[C@H](NC(=O)c1coc(-c2ccccc2)n1)C(=O)NCC(=O)N[C@@H](Cc1ccc(O)cc1)C(=O)Nc1ccc(F)cc1F`
A: 102

Q: Consider next the molecule `CC(C)C[C@H](NC(=O)/C=C/c1ccccc1)C(=O)N[C@@H](Cc1ccccc1)C(=O)N[C@@H](Cc1ccccc1)C(=O)NC1CCCCC1` in the same way.
A: -4

Q: Next: `CCCCCCCCCCCCCCCC(=O)N[C@@H](Cc1ccc(O)cc1)C(=O)N[C@@H](Cc1ccc(O)cc1)C(=O)N[C@@H](Cc1ccc(O)cc1)C(=O)OCCCl`
A: 114

Q: And the next one, `NCCCC[C@H](NC(=O)CCc1ccccc1)C(=O)N[C@@H](Cc1c[nH]cn1)C(=O)N[C@@H](CO)C(=O)Nc1ccc(F)cc1F` ?
A: 96

Q: What would you report for `CCCCCCCCCCCCCC(=O)N[C@@H](Cc1ccc(O)cc1)C(=O)N[C@@H](Cc1ccc(O)cc1)C(=O)N[C@@H](Cc1ccc(O)cc1)C(=O)N(C)OC` ?
A: 89

Q: Would you mind doing C=CCOC(=O)[C@H](Cc1c[nH]cn1)NC(=O)[C@H](Cc1ccccc1)NC(=O)CNC(=O)C1COC(c2ccccc2)=N1 (some centres not stated) as well?
A: 106

Q: Another: `O=C(/C=C/c1ccc(F)cc1)N[C@@H](CO)C(=O)N[C@@H](Cc1ccccc1)C(=O)N[C@@H](CO)C(=O)Nc1ccc(N2CCOCC2)cc1`
A: 79

Q: Then `C[C@H](NC(=O)c1coc(-c2ccccc2)n1)C(=O)NCC(=O)N[C@@H](Cc1c[nH]cn1)C(=O)Nc1ccc(F)cc1F` ?
A: 76

* * *

species on record: Rattus norvegicus; assay: Inhibition of rat recombinant Rab geranylgeranyltransferase at 100 uM in presence of canine Rab7 and rat REP1 NBD-FPP based continuous fluorimetric assay
property label: inhibition (%)
Report the figure in % without appending any unit label.

Some compounds with recorded inhibition:
compound=CC(C)C[C@H](NC(=O)[C@H](CO)NC(=O)[C@H](Cc1ccccc1)NC(=O)CCc1ccccc1)C(=O)OCCCl property_label=inhibition reported_result=97
compound=CC[C@H](C)[C@H](NC(=O)c1ccc(-c2ccccc2)cc1)C(=O)N[C@@H](C(=O)N[C@@H](CCC(N)=O)C(=O)NN)C(C)C property_label=inhibition reported_result=84
compound="O=C(CCNC(=O)[C@H](Cc1c[nH]cn1)NC(=O)OCc1ccccc1)N[C@@H](Cc1ccc(O)cc1)C(=O)NCC(O)CO (stereo not given in full)" property_label=inhibition reported_result=89
compound=CCCCCCCCCCCOc1ccc(C(=O)N[C@@H](Cc2ccc(O)cc2)C(=O)N[C@@H](Cc2ccc(O)cc2)C(=O)N[C@@H](Cc2ccc(O)cc2)C(=O)OCCN)cc1 property_label=inhibition reported_result=40

Next:
Q: I am curious: what inhibition value has been reported for `CCCCCCCCCCCOc1ccc(C(=O)N[C@@H](Cc2c[nH]cn2)C(=O)N[C@@H](Cc2ccc(O)cc2)C(=O)N[C@@H](Cc2ccccc2)C(=O)Nc2nccs2)cc1` ?
A: 76

* * *

# inhibition per record follows
species: Rattus norvegicus; assay: Inhibition of rat recombinant Rab geranylgeranyltransferase at 100 uM in presence of canine Rab7 and rat REP1 NBD-FPP based continuous fluorimetric assay
Peptide text beside a SMILES is read from it. * marks the point of attachment. Undecanoyl = CCCCCCCCCCC(=O)*

// solved cases for inhibition follow
compound=COC(=O)[C@H](CC(C)C)NC(=O)[C@H](COC(C)(C)C)NC(=O)[C@H](Cc1ccccc1)NC(=O)/C=C/c1ccc(F)cc1 property_label=inhibition reported_result=57%
compound="CCCCCCCCCCC(=O)N[C@@H](Cc1c[nH]cn1)C(=O)N[C@@H](Cc1ccccc1)C(=O)N[C@@H](Cc1ccc(O)cc1)C(=O)OC (Undecanoyl-His-Phe-Tyr-OMe)" property_label=inhibition reported_result=68%

Now look at this entry.
Q: Could you tell me which inhibition is on file for `O=C(N[C@H](Cc1cnc[nH]1)C(=O)N[C@@H](Cc1ccc(O)cc1)C(=O)N[C@@H](Cc1ccccc1)C(=O)O)OCc1ccc(OCc2ccccc2)cc1` ?
A: 47%
